Source of measurements: PubChem BioAssay (NCI)

Test system: ACHN renal
protocol.summary: NCI tumour cell line growth inhibition, 48 h
property.name: GI50

The compound listed as Cc1cc(C)cc(Oc2cccc(-c3c(C)nnn3C3CCN(CCN(C)C)CC3)n2)c1 has a reported GI50 of 2.01 µM

The compound listed as N#Cc1ccc(/C=N/NC(=O)c2[nH]c3ccc(Br)cc3c2-c2ccccc2)o1 has a reported GI50 of 0.42 µM

The compound listed as O=c1oc2ccc(-c3ccc(F)cc3F)cc2c(=O)n1-c1ccc(F)cc1 has a reported GI50 of 3.88 µM

The compound listed as O=C(CSc1nc2ccccc2c(=O)n1-c1ccc(Cl)cc1)Nc1ccc(-c2nc3ccc([N+](=O)[O-])cc3[nH]2)cc1 has a reported GI50 of 3.1 µM

====

Tested on: U251 CNS
protocol.summary: NCI tumour cell line growth inhibition, 48 h; in the data active = GI50 below about 0.43 µM; inactive = the rest
Pick from active, inactive when you respond.

cpd_smiles=O=c1oc2ccc(-c3ccc(F)cc3F)cc2c(=O)n1-c1ccc(F)cc1 class_assignment=inactive

Please let me know the test result on file for O=C(CSc1nc2ccccc2c(=O)n1-c1ccc(Cl)cc1)Nc1ccc(-c2nc3ccc([N+](=O)[O-])cc3[nH]2)cc1 .
inactive

Please let me know the test result on file for N#Cc1ccc(/C=N/NC(=O)c2[nH]c3ccc(Br)cc3c2-c2ccccc2)o1 .
active

Please let me know the test result on file for Cc1cc(C)cc(Oc2cccc(-c3c(C)nnn3C3CCN(CCN(C)C)CC3)n2)c1 .
inactive

====

Tested on: MOLT-4 leukemia
protocol.summary: NCI tumour cell line growth inhibition, 48 h; in the data active means GI50 below about 0.43 µM; inactive means the rest
Pick from YES = active, NO = inactive when you respond.

Example entries and their recorded answers appear below.
molecule=N#Cc1ccc(/C=N/NC(=O)c2[nH]c3ccc(Br)cc3c2-c2ccccc2)o1 measurement_target="MOLT-4 leukemia" class_assignment=YES
molecule="O=C(c1ccc(O)cc1)C1[C@H](c2ccc(Cl)cc2)[C@@H](c2ccccc2)NC12C(=O)Nc1ccccc12 (stereo not given in full)" measurement_target="MOLT-4 leukemia" class_assignment=NO
molecule=Cc1cc(C)cc(Oc2cccc(-c3c(C)nnn3C3CCN(CCN(C)C)CC3)n2)c1 measurement_target="MOLT-4 leukemia" class_assignment=NO
molecule=O=C(CSc1nc2ccccc2c(=O)n1-c1ccc(Cl)cc1)Nc1ccc(-c2nc3ccc([N+](=O)[O-])cc3[nH]2)cc1 measurement_target="MOLT-4 leukemia" class_assignment=NO

We next turn to a different molecule, shown below.
Please let me know the test result on file for N#Cc1c(-c2ccccc2Cl)cc(-c2ccc3ccccc3c2)[nH]c1=O .
NO

====

Tested on: MDA-MB-468 breast
protocol.summary: NCI tumour cell line growth inhibition, 48 h
property.name: GI50

Study these solved cases before continuing.
compound=O=C(N/N=C/c1ccc[nH]1)c1[nH]c2ccc(Br)cc2c1-c1ccccc1 measurement_target="MDA-MB-468 breast" endpoint_value="196 nM"
compound="COc1ccc2nc3cc(Cl)ccc3c(NCCNCC(C)O)c2c1 (stereo not given)" measurement_target="MDA-MB-468 breast" endpoint_value="1550 nM"
compound=COc1ccc(-c2cn[nH]c2-c2cc(OC)c(OC)c(OC)c2)cc1 measurement_target="MDA-MB-468 breast" endpoint_value="42.2 nM"
compound=O=C(Nc1ccc(Oc2ccc(Nc3nc4ccccc4s3)cc2)cc1)Nc1ccc(Cl)c(C(F)(F)F)c1 measurement_target="MDA-MB-468 breast" endpoint_value="405 nM"

Could you now consider this next compound?
The compound listed as O=C(CSc1nc2ccccc2c(=O)n1-c1ccc(Cl)cc1)Nc1ccc(-c2nc3ccc([N+](=O)[O-])cc3[nH]2)cc1 has a reported GI50 of 1400 nM
